TARGET UNDER TEST: Cholinesterase (Homo sapiens, UniProt P06276)
Sequence (P06276 whole entry): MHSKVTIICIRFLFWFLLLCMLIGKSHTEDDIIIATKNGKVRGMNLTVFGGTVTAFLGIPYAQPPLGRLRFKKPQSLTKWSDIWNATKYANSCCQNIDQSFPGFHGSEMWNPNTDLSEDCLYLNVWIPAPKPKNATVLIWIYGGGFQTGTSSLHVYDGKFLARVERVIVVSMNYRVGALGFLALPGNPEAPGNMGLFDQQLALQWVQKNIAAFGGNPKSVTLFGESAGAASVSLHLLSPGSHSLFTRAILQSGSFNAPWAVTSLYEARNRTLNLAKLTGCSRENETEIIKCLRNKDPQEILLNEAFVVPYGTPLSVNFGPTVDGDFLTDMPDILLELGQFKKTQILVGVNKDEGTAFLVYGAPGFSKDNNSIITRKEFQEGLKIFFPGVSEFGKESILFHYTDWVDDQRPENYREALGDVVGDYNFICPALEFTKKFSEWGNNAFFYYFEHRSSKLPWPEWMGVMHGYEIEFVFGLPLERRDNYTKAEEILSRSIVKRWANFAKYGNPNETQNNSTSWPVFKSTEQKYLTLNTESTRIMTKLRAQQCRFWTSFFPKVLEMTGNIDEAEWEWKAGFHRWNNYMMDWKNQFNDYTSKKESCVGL
TEST NAME: Inhibition of human serum butyrylcholinesterase preincubated for 5 mins followed by addition of S-butyrylthiocholine iodide as substrate measured after 60 to 120 mins by Ellmans method
I'd appreciate it if you could supply IC50 values for the items below.
Give bare numbers, in µM.

Below, 5 compounds whose answers are already recorded.
[[record]]
molecule_smiles = "COc1cccc(/C=C/C(=O)NCCC2CCN(Cc3ccccc3)CC2)c1"
measured = 1.44

[[record]]
molecule_smiles = "O=C(/C=C/c1ccccc1O)NCCC1CCN(Cc2ccccc2)CC1"
measured = 0.988

[[record]]
molecule_smiles = "COc1cc(CCC(=O)NCCC2CCN(Cc3ccccc3)CC2)ccc1O"
measured = 0.286

[[record]]
molecule_smiles = "O=C(/C=C/c1ccc(O)cc1)NCCC1CCN(Cc2ccccc2)CC1"
measured = 0.784

[[record]]
molecule_smiles = "COc1cc(/C=C/C(=O)NCCC2CCN(Cc3ccccc3)CC2)ccc1O"
measured = 1.12


I have 5 compounds here; please give me IC50 for each one.
1. O=C(/C=C/c1ccc(F)cc1)NCCC1CCN(Cc2ccccc2)CC1
2. O=C(/C=C/c1ccc([N+](=O)[O-])cc1)NCCC1CCN(Cc2ccccc2)CC1
3. COc1cc(/C=C/C(=O)NCCC2CCN(Cc3ccccc3)CC2)cc(OC)c1OC
4. COc1cc(/C=C/C(=O)NCCC2CCN(Cc3ccccc3)CC2)ccc1OC(C)=O
5. O=C(/C=C/c1ccc(Cl)cc1)NCCC1CCN(Cc2ccccc2)CC1

[7.51, 4.23, 0.669, 0.245, 2.07]

---

MEASUREMENT CONDITIONS: DPPH radical solution, 30 min
Description: Antioxidant activity assessed as DPPH radical scavenging activity incubated in dark for 30 mins by spectrophotometry
# label = Yes if IC50 < 20 µM else No

The examples below pair each entry with its known result.
[[record]]
compound = "COc1cc(/C=C/C(=O)O)ccc1O [FERULATE]"
classification = "No"

[[record]]
compound = "COc1cc(/C=C/C(=O)NC2CCN(Cc3ccccc3)CC2)cc(OC)c1O"
classification = "No"

[[record]]
compound = "O=C(/C=C/c1ccc(O)c(O)c1)NCCC1CCN(Cc2ccccc2)CC1"
classification = "Yes"

[[record]]
compound = "COc1cc(/C=C/C(=O)CC(=O)/C=C/c2ccc(O)c(OC)c2)ccc1O"
classification = "No"


Does COc1cc(/C=C/C(=O)CC(=O)NC2CCN(Cc3ccccc3)CC2)ccc1O have IC50 strictly under 20 µM?
No

Does COc1cc(/C=C/C(=O)NCCC2CCN(Cc3ccccc3)CC2)cc(OC)c1O have IC50 strictly under 20 µM?
No

Does COc1cc(/C=C/C(=O)CC(=O)NCCC2CCN(Cc3ccccc3)CC2)ccc1O have IC50 strictly under 20 µM?
No

Does COc1cc(/C=C/C(=O)NCCC2CCN(Cc3ccccc3)CC2)ccc1O have IC50 strictly under 20 µM?
No

Does O=C(/C=C/c1ccc(O)c(O)c1)NC1CCN(Cc2ccccc2)CC1 have IC50 strictly under 20 µM?
Yes

Does COc1cc(CCC(=O)NC2CCN(Cc3ccccc3)CC2)ccc1O have IC50 strictly under 20 µM?
No

Does COc1cc(CCC(=O)NCCC2CCN(Cc3ccccc3)CC2)ccc1O have IC50 strictly under 20 µM?
No

---

Species: Homo sapiens
TEST NAME: Selectivity index, ratio of IC50 for human serum butyrylcholinesterase to IC50 for human erythrocytes acetylcholinesterase
I'd appreciate it if you could supply Ratio IC50 values for the items below.
Numbers only.

I have 3 compounds here; please give me Ratio IC50 for each one.
1. O=C(/C=C/c1ccc(F)cc1)NCCC1CCN(Cc2ccccc2)CC1
2. COc1cc(CCC(=O)NCCC2CCN(Cc3ccccc3)CC2)ccc1O
3. O=C(/C=C/c1ccc(O)c(O)c1)NCCC1CCN(Cc2ccccc2)CC1

[2.28, 0.054, 100]

I have 2 compounds here; please give me Ratio IC50 for each one.
1. O=C(/C=C/c1ccccc1O)NCCC1CCN(Cc2ccccc2)CC1
2. O=C(/C=C/c1ccccc1)NCCC1CCN(Cc2ccccc2)CC1

1: 0.37; 2: 3.43
